Target Entity: T1, MARV Musoke GPe (Marburg virus, Musoke strain, UniProt P35253 19-637)
T1 sequence: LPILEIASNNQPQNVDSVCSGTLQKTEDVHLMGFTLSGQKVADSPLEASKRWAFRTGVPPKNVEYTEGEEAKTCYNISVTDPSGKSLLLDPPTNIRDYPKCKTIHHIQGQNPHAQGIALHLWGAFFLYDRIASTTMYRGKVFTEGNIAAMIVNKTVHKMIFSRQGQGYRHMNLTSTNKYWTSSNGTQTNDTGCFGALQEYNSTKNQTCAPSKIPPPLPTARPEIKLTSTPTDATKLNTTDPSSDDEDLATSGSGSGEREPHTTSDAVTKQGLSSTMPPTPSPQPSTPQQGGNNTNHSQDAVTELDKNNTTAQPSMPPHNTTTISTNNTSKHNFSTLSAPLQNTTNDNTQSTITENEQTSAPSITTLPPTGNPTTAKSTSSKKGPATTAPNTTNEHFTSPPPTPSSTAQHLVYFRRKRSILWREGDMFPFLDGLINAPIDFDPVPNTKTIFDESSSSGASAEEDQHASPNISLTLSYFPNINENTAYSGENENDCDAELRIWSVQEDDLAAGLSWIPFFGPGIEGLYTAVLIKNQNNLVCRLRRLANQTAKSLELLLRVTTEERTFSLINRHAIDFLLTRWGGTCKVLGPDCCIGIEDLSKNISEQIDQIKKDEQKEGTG
Test Details: ELISA on coated antigen (FIG. 2)
Observed Property: binding result

Please review the entries below; each comes with its answer.
CAN40G1 (antibody, V domains shown) VH: EVQLQQSGPELVKPGASVKISCRTSGYTFTEYTIHWVKQSRGKSLEWIGGINPNHGGTLYNQKFKVKATLTVDKSSSTAYMELRSLTSEDSAVYYCARFTYDYWGQGTTLTVSS VL: DIVLTQSPASLAVSLGQRASISCKASQSVDHDGDSYMNWYQQKPGQPPKLLIYATSNLESGIPARFSGSGSGTDFTLNIHPVEEEDAATYYCQQSYEVPLTFGAGTKLELK    binds
CAN30G3 (antibody, V domains shown) VH: QVQLKESGPGLVAPSQSLSITCTVSGFSLTDYGITWIRQPPGKGLEWLGVIWGGGSAYYNLVLKSRLSISKDNSKSQVFLKMNSLQTDDTAMYYCAKHRTLITTAMDYWGQGISVTVSS VL: DVLMTQTPLSLPVSLGDQASISCRSSQNIVHSNGNTYLEWYLQKSGQSPKLLIYKVSNRFSGVPDRFSGSGSGTDFTLKISRVEAEDLGVYYCFQGSHFPWTFGGGTKLEIK    no binding
CAN30G5 (antibody, V domains shown) VH: EVQLVESGGGLVQPKGSLKLSCAASGFAFNSYAMHWVCQAPGKGLEWVARIRIKSGNYATSYAGSVTDRFTVSRDDSQNLFYLQMNNLKTEDTAMYYCVREWEGAMDYWGQGTSVTVSS VL: DIVLTQSPLSLPVSLGDQASISCRSSQSLVHSNGNTYLHWYLQKPGQSPNLLIYKVSNRFSGVPDRFSGSGSGTDFTLKISRVEAEDLGVYFCSQSTHVPWTFGGGTKLEIK    no binding
CAN30G4 (antibody, V domains shown) VH: EVKLVESGGGLVKSGGSLKLSCAVSGFTFSTYAMSWVRQIPEKRLEWVATISNGGSYIYYSDSVKGRFTISRDNAKNTLYLQMSSLRSEDTAMYYCARHRESYRYDWFAYWGQGTLVTVSA VL: DVLMTQTPLSLPVSLGDQASISCRSSQNIVHSDGNTYLEWYLQKPGQSPKLLIYKFSNRFSGVPDRFSGSGSGTDFTLKISRVEAEDLGVYYCFQGSHVPPTFGAGTKLELK    binds

# context switch: different binder, same binding result
Fill blank: measured binding result of the binder CAN30G1 (antibody, V domains shown) VH: QIQLVQSGPELKKPGETVKISCKASGYTFTNYGMNWVKQAPGKGLKWMGWINTYTGKPTYVDDFKGRFAFSLETSANTAYLQINNLKNEDTATYFCESGGYDEDYWGQGTTLTVSS VL: ENVLTQSPAIMSASPGEKVTMTCSASSSVTYMHWYQQKSSTSPKLWIYDTSKLASGVPGRFSGSGSGNSYSLTISSMEAEDVATYYCFQGSGYPYTFGGGTKLEIK is ____.
binds

From: patent US20170065702A1
